- ASSAY_TARGET: EP3 membrane (EP3 receptor) (Homo sapiens, UniProt P43115)
- Construct: purchased Millipore HTS092M
- ASSAY_SUMMARY: [3H]-PGE2 binding; EP3 competition binding (SPA)
METRIC: Ki (nM)

1 = Cc1nc2cc(S(=O)(=O)NC(=O)NC/C(F)=C3\CCCc4cnn(Cc5ccc(Cl)cc5Cl)c43)ccc2o1 [Compound #183]
2 = O=C(CC/C(F)=C1\COCc2cnn(Cc3ccc(Cl)cc3Cl)c21)NS(=O)(=O)c1cc(Cl)c(Cl)s1 [Compound #61]
-- ask Of the two listed items, 1 and 2 , which carries the larger Ki figure? Select an item and report its label.
-- reply 1

###

- ASSAY_TARGET: EP3 membrane (EP3 receptor) (Homo sapiens, UniProt P43115)
- Construct: purchased Millipore HTS092M
- Sequence (P43115 1-390): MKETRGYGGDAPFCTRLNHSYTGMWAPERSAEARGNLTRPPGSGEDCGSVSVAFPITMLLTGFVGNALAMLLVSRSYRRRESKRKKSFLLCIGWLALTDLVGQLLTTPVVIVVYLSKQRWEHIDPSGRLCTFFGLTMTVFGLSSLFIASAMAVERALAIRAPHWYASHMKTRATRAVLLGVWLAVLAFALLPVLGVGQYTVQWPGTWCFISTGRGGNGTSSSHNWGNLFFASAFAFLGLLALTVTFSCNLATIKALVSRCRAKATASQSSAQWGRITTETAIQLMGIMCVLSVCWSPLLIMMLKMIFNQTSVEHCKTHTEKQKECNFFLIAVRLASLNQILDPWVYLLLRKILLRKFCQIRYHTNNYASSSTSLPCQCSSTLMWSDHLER
- ASSAY_SUMMARY: [3H]-PGE2 binding; EP3 competition binding (SPA)
pKi: −log10 of the molar value.
molecules and their reported pKi

Illustrative cases are given below, each with its answer.
O=C(NS(=O)(=O)c1ccc(Cl)cc1)OC/C=C1\CCCc2cnn(-c3ncccn3)c21 < 5.00
O=C(NC/C(F)=C1/CCCn2nnc(Cc3ccccc3)c21)NS(=O)(=O)c1cc(Cl)c(Cl)s1 6.33
O=C(NS(=O)(=O)c1ccc(Cl)cc1)OC/C(F)=C1/COCc2cnn(-c3cccc(C(F)(F)F)c3)c21 < 5.00

-- ask What value of measured pKi is listed for `COc1ccc(Cl)cc1S(=O)(=O)NC(=O)NC/C(F)=C1/CCCc2cnn(-c3ccc4ccccc4c3)c21` ?
-- reply < 5.00

-- ask What value of measured pKi is listed for `O=C(NS(=O)(=O)c1ccc(Cl)cc1)OC/C=C1\c2c(cnn2Cc2ccc(Cl)cc2Cl)CCC1(F)F` ?
-- reply < 5.00

###

- ASSAY_TARGET: CHO cells over-expressing the EP3 receptor (Homo sapiens, UniProt P43115)
- ASSAY_SUMMARY: CHO cell cAMP assay; EP3 cAMP antagonist dose response (sulprostone reference), HTRF
- PROTOCOL_CONDITIONS: sulprostone 700 nM (EC80) and FSK 2 μM (EC70); read-out: CHO_cAMP IC50
- Experimental: Biological Example 2: CHO Cell cAMP Assay This assay monitored the cAMP generation in CHO cells over-expressing the EP3 receptor in the presence or absence of antagonist stimulated with Forskolin (FSK, CAS No. 66428-89-5) and a known EP3 Agonist (sulprostone, CAS No. 60325-46-4). For detection, a homogeneous competitive immunoassay (Time Resolved Fluorescence Energy Transfer (hTR-FRET)) was used. […] IC50 values were determined from a […] (Hill equation) of a single 11-point compound dosing. […]
METRIC: IC50 (nM)

Illustrative cases are given below, each with its answer.
O=C(NS(=O)(=O)c1cc(Cl)c(Cl)s1)OC/C(F)=C1/CCCc2cnn(Cc3ccc(Cl)cc3Cl)c21 2800
CC(C)S(=O)(=O)NC(=O)CC/C=C1\CCCc2cnn(Cc3ccc(Cl)cc3Cl)c21 118
O=C(NC/C=C1\CCCc2cnn(-c3ccc(C(F)(F)F)cc3)c21)NS(=O)(=O)c1cc(Cl)c(Cl)s1 4
COc1ccc(S(=O)(=O)NC(=O)NC/C(F)=C2\CCCc3cnn(Cc4ccc(Cl)cc4Cl)c32)cc1Cl 18
O=C(NC/C(F)=C1/CCc2cnn(-c3ccc(C(F)(F)F)cc3)c21)NS(=O)(=O)c1cc(Cl)c(Cl)s1 488

A = O=C(NC/C(F)=C1\CCCc2cnn(Cc3ccc(Cl)cc3Cl)c21)NS(=O)(=O)c1cc2ccccc2o1
B = O=C(NC/C=C1\CCCc2cnn(C3CCN(c4ccccn4)CC3)c21)NS(=O)(=O)c1cc(Cl)c(Cl)s1
-- ask // select label with min value of measured IC50 from [ A , B ] Select an item and report its label.
-- reply B

a = O=C(NS(=O)(=O)c1ccc(Cl)cc1)OC/C=C1\CCCc2cnn(Cc3ccc(Cl)cc3Cl)c21
b = CC(C)Cn1ncc2c1/C(=C/CNC(=O)NS(=O)(=O)c1ccc(Cl)cc1)CCC2
c = O=C(C/C=C1\CCCc2cnn(Cc3ccc(Cl)cc3Cl)c21)NS(=O)(=O)c1cccs1
d = COc1ccc(-n2ncc3c2/C(=C/CNC(=O)NS(=O)(=O)c2cc(Cl)c(Cl)s2)CCC3)cn1
-- ask Ascending by IC50, please. The response must list the labels following the requested ordering.
-- reply d, a, c, b

A = O=C(NC/C(F)=C1\CCCc2cnn(Cc3ccc(Cl)cc3Cl)c21)NS(=O)(=O)c1ccc(Cl)cc1
B = O=C(NC/C=C1\CCCc2cnn(Cc3ccc(Cl)cc3Cl)c21)NS(=O)(=O)c1cccs1
C = O=C(NC/C=C1\CCCc2cnn(C3CCN(c4ccc(F)cc4)CC3)c21)NS(=O)(=O)c1ccc(Cl)cc1
D = O=C(NC/C(F)=C1/CCCc2cnn(Cc3ccc(Cl)cc3Cl)c21)NS(=O)(=O)c1cc(Cl)c(Cl)s1
E = O=C(C/C=C1\CCCc2cnn(Cc3ccc(Cl)cc3Cl)c21)NS(=O)(=O)c1nc2ccccc2s1
-- ask # sort list by recorded IC50, greatest to least The response must list the labels following the requested ordering.
-- reply D, E, A, C, B
(D: 6700 nM, E: 330 nM, A: 69 nM, C: 45 nM, B: 28 nM)

###

- ASSAY_TARGET: CHO cells over-expressing the EP3 receptor (Homo sapiens)
- ASSAY_SUMMARY: CHO cell cAMP assay; EP3 cAMP antagonist dose response (sulprostone reference), HTRF
- PROTOCOL_CONDITIONS: sulprostone 700 nM (EC80) and FSK 2 μM (EC70); read-out: CHO_cAMP IC50
METRIC: IC50 (nM)

P = COc1ccc(S(=O)(=O)NC(=O)NC/C=C2\COCc3cnn(Cc4ccc(Cl)cc4Cl)c32)cc1 [Compound #62]
Q = O=C(NC/C=C1\CCCc2cnn(Cc3ccc(Cl)cc3Cl)c21)NS(=O)(=O)c1cnc2ccccc2c1 [Compound #12]
-- ask // select label with min value of measured IC50 from [ P , Q ] Select an item and report its label.
-- reply Q

P = O=C(NS(=O)(=O)c1ccc(Cl)cc1)OC/C=C1/c2c(cnn2Cc2ccc(Cl)cc2Cl)CCC1(F)F [Compound #82]
Q = O=C(CC/C(F)=C1\CCCc2cnn(Cc3ccc(Cl)cc3Cl)c21)NS(=O)(=O)c1cc(Cl)c(Cl)s1 [Compound #56]
R = O=C(NS(=O)(=O)c1ccc(Cl)cc1)OC/C=C1\CCCc2c(C(F)F)nn(Cc3ccc(Cl)cc3Cl)c21 [Compound #32]
-- ask Ascending by IC50, please. The response must list the labels following the requested ordering.
-- reply Q, R, P

###

- ASSAY_TARGET: EP3 membrane (EP3 receptor) (Homo sapiens, UniProt P43115)
- Construct: purchased Millipore HTS092M
- ASSAY_SUMMARY: [3H]-PGE2 binding; EP3 competition binding (SPA)
METRIC: Ki (nM)

Illustrative cases are given below, each with its answer.
O=C(NC/C(F)=C1\COCc2onc(Cc3ccc(Cl)cc3Cl)c21)NS(=O)(=O)c1cc(Cl)c(Cl)s1 6
O=C(NS(=O)(=O)c1cc(Cl)c(Cl)s1)OC/C(F)=C1\CCCc2cnn(Cc3ccc(Cl)cc3Cl)c21 3
COc1ccc(-n2ncc3c2/C(=C/CNC(=O)NS(=O)(=O)c2ccc(Cl)cc2)CCC3)cn1 238
COc1ccc(F)cc1S(=O)(=O)NC(=O)NC/C(F)=C1\CCCc2cnn(-c3ccc4ccccc4c3)c21 4100
O=C(CC/C=C1\COCc2cnn(Cc3ccc(Cl)cc3Cl)c21)NS(=O)(=O)c1cc(Cl)c(Cl)s1 1

A = O=C(NC/C(F)=C1\CCCc2cnn(Cc3ccc(C(F)(F)F)cc3)c21)NS(=O)(=O)c1cc2ccccc2o1
B = O=C(NC/C=C1\CCCc2cn(Cc3ccc4ccccc4c3)nc21)NS(=O)(=O)c1cc(Cl)c(Cl)s1
C = Cn1nc2c(c1Cc1ccc(Cl)cc1Cl)/C(=C(\F)CNC(=O)NS(=O)(=O)c1cc(Cl)c(Cl)s1)COC2
D = CN(C/C(F)=C1\COCc2cnn(Cc3ccc(Cl)cc3Cl)c21)C(=O)NS(=O)(=O)c1cc(Cl)c(Cl)s1
-- ask Ascending by Ki, please. The response must list the labels following the requested ordering.
-- reply C, D, B, A
(C: 1 nM, D: 35 nM, B: 110 nM, A: 350 nM)

A = COc1ccc(S(=O)(=O)NC(=O)NC/C(F)=C2\CCCc3cnn(Cc4ccc(Cl)cc4Cl)c32)cc1OC
B = O=C(NC/C=C1\CCCc2cnn(Cc3ccc(Cl)cc3Cl)c21)NS(=O)(=O)c1ccc2[nH]c(=O)oc2c1
-- ask // select label with min value of measured Ki from [ A , B ] Select an item and report its label.
-- reply B
(B: 1 nM, A: 149 nM)
